So I've got a bunch of binders here, and I need their Kd values.
biological target: T1, human BACE1 ECD; assay: Octet, pH 7.5;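 note: antibodies captured on anti-human capture biosensor tips, dissociation followed in PBS with BSA buffer, kinetics fitted with a one-to-one binding model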
T1 construct: analyte of the Octet assay (200 nM) and enzyme of the first short substrate assay; also called human BACE1 extracellular domain
T1 sequence (single chain, as listed by the source limits assumed): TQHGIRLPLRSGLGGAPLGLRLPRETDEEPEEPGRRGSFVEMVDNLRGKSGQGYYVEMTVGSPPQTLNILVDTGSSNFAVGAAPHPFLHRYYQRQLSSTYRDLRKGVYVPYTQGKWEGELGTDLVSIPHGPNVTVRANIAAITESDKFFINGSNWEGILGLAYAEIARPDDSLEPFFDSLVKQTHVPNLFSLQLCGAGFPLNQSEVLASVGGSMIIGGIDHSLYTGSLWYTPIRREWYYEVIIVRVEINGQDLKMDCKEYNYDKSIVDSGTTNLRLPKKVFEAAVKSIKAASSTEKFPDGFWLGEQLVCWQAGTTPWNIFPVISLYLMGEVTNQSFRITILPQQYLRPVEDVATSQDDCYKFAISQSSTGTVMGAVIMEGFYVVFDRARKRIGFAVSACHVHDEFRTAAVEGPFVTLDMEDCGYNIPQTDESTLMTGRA
Reply numerically in nM, unit not repeated.

# Kd lookup, item 5984 (antibody, V domains shown, anti-BACE1 IgG) VH: QLQLQESGPGLVKPSETLSLTCTVSGGSISSSSYYWGWIRQPPGKGLEWIGNIYYSGSTYYNPSLKGRVTISVDTSKNQFSLKLSSVTAADTAVYYCARLGHGYNYFDLWGRGTLVTVSS VL: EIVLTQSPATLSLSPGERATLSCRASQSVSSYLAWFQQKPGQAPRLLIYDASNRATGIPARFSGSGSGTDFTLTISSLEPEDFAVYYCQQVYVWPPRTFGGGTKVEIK
0.43

Entry under review: 5983 (antibody, V domains shown, anti-BACE1 IgG) VH: QLQLQESGPGLVKPSETLSLTCTVSGGSISSSSYYWGWIRQPPGKGLEWIGNIYYSGSTYYNPSLRSRVTISVDTSKNQFFLKLSSVTAADTAVYYCARLGHGYNYFDLWGRGTLVTVSS VL: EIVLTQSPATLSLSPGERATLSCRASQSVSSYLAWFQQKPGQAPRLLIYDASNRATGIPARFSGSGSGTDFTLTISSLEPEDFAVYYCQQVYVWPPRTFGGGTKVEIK . Reported Kd?
0.35

Look up Kd: 5894 (antibody, V domains shown, anti-BACE1 IgG) VH: QVQLVQSGAEVKKPGSSVKVSCKASGGTFSGYAISWVRQAPGQGLEWMGNIIPGFGTANYAQKFQGRVTITADESTSTAYMELSSLRSEDTAVYYCARSGGTKYGMLDVWGQGTMVTVSS VL: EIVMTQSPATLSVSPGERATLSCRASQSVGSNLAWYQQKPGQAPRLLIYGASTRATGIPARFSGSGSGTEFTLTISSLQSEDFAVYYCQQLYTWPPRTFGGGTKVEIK
0.27

# credit: patent US20180057604A1
